Biological target: T1, hPD-L1-His (human, UniProt Q9NZQ7 19-238)
T1 construct: Bought protein; also called hPD-L1-His (manufactured by Edison); not shown: His tag
T1 sequence (Q9NZQ7 19-238 limits assumed): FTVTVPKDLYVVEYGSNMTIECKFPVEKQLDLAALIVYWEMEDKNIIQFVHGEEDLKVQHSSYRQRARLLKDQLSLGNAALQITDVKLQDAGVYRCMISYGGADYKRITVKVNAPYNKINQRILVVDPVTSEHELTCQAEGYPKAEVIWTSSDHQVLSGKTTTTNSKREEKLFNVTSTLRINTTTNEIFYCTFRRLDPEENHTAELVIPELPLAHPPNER
Assay: SPR (Biacore T200), antibody on Protein A chip, hPD-L1-His injected, 1:1 fit
binders and their reported kon
Lab book: enter the figure in M⁻¹ s⁻¹, no units written.

Input line: Answer with reported kon of 6A11-H4K3-IgG1 (antibody, V domains shown) VH: EVQLVESGGGLVQPGGSRRLSCAASGFTFSSFGMHWVRQAPGKGLEWVAYISSGSNTIYYADTVKGRFTISRDNPKNSLYLQMNSLRAEDTAIYYCTRNGYDGWYAMDYWGQGTTVTVSS VL: EIVLTQSPATLSASPGERATLSCSASSSVSYIHWFQQKPGQSPRRWIYDTSKLASGIPARFSGSGSGTDYTLTISSMEPEDFATYYCQQWSTNPFTFGQGTKLEIKR
Output line: 233000

Input line: Answer with reported kon of 6A11-H1K3-IgG1 (antibody, V domains shown) VH: EVQLVESGGGLVQPGGSLRLSCAASGFTFSSFGMHWVRQAPGKGLEWVSYISSGSNTIYYADTVKGRFTISRDNAKNSLYLQMNSLRAEDTAVYYCARNGYDGWYAMDYWGQGTTVTVSS VL: EIVLTQSPATLSASPGERATLSCSASSSVSYIHWFQQKPGQSPRRWIYDTSKLASGIPARFSGSGSGTDYTLTISSMEPEDFATYYCQQWSTNPFTFGQGTKLEIKR
Output line: 145000

API: the following record is the query input.
Input line: Answer with reported kon of 6A11-H4K4-IgG1 (antibody, V domains shown) VH: EVQLVESGGGLVQPGGSRRLSCAASGFTFSSFGMHWVRQAPGKGLEWVAYISSGSNTIYYADTVKGRFTISRDNPKNSLYLQMNSLRAEDTAIYYCTRNGYDGWYAMDYWGQGTTVTVSS VL: EIVLTQSPATLSASPGERATLSCSASSSVSYIHWFQQKPGQSPRRWIYDTSKLASGIPARFSGSGSGTSYTLTISSMEPEDAATYYCQQWSTNPFTFGQGTKLEIKR
Output line: 208000
